FYI, the data here is from the RNAGym collection of RNA variant scans (doi:10.1021/acssynbio.7b00057).

What aptazyme ON/OFF ratio was measured for each of the following?
B1: Pistol ribozyme (parent)
chain: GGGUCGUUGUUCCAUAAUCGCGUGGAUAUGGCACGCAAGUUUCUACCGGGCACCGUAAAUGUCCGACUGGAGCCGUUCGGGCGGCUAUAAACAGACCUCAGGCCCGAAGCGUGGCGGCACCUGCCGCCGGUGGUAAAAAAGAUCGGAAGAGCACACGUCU

Variants of: B1
Experimental Details: aptazyme ON/OFF ratio, guanine; higher = stronger switching; co-transcriptional cleavage with and without guanine
Answers are plain numbers.

Here's what some known entries look like.
U8C G9U U10A C12A C13U	1.13
U7G G9C U10C C12A C13G	1.16
U7C U8G G9A U10A U11G C12G C13U	1.33
U7C U8C U11C C12A C13U	1.28

Record aptazyme ON/OFF ratio per entry; entries follow.
1. U8A G9A U10A U11A C13A
2. U7C G9U U11A C13A
3. U8A G9U U10C
4. U7C U8G G9U U10A U11A C12G C13G

Out:
[1.27, 1.2, 1.88, 1.28]

Record aptazyme ON/OFF ratio per entry; entries follow.
1. U7G U8C G9U U11C C12A
2. U10A U11C C12A C13A

Out:
[1.31, 1.17]

Record aptazyme ON/OFF ratio per entry; entries follow.
1. U8G G9A U10G U11C C12A C13G
2. U8A U10C U11C C12G C13A

Out:
1: 1.16; 2: 1.21
